METHOD: Selectivity for glycine site
ASSAY READOUT: Selectivity
# print the numeric value only

[[record]]
smiles_input = "Oc1nc2cc(F)c(F)c(Cl)c2nc1O"
recorded_measurement = 10


For the molecule "Oc1nc2cc(Cl)c(C(F)(F)F)cc2nc1O" , what Selectivity is on record?
9.8
